Molecular target: T1, Anti-PSMA Fab (SEQ ID NOs: 19, 20)
T1 construct: also called 006 PSMA Fab
Assay: phage binding ELISA; clonal phage supernatant on biotinylated PSMA Fab captured on neutravidin plate; anti-M13-HRP detection
value.type: Anti-PSMA Fab (SEQ ID NOs: 19, 20) signal

binder	test.result
WINWCTPEWMCMGF [Phage-1947]	1.94
MEKWCIPSWMCDVN [Phage-1938]	1.96
LEKWCIPTWMCELF [Phage-1943]	1.94
DGKWCIPPWMCQST [Phage-1944]	1.94
